Where these numbers come from: patent US6936723B2

tgt: purified reconstituted V-ATPase from bovine brain (Bos taurus, UniProt P23956+P61420+Q29466+Q2TA24)
Construct: from tissue; host or cells: bovine brain
protocol text: Inhibition of purified reconstituted V-ATPase (proton pumping)
Format: biochemical
pIC50: −log10 of the molar value.
Respond with class 1 for pIC50 values of 9 and above, class 0 for values below.

INSERT INTO results (compound, class_assignment) VALUES
  ('CCCCCCC(=O)N(/C=C/C[C@H]1C[C@@H](O)[C@@H](C)C/C=C/Cc2cccc(O)c2C(=O)O1)C(=O)N/C=C/C[C@H]1C[C@@H](O)[C@@H](C)C/C=C/Cc2cccc(O)c2C(=O)O1 [Compound 345]', 'class 0'),
  ('CC/C=C\C=C/C(=O)N/C=C/C[C@H]1C[C@@H](O)[C@@H](C)C/C=C/Cc2cccc(O)c2C(=O)O1 [301a/301c]', 'class 1'),
  ('CCC=CC=CC(=O)NC=CCC1CC2CC(O)CC(Cc3cccc(O)c3C(=O)O1)O2 (stereo not drawn) [Apicularen A]', 'class 1'),
  ('CCCCCOC(=O)N/C=C/C[C@H]1C[C@@H](O)[C@@H](C)C/C=C/Cc2cccc(O)c2C(=O)O1 [Compound 351]', 'class 1');

====

tgt: purified reconstituted V-ATPase from bovine brain (Bos taurus, UniProt P23956+P61420+Q29466+Q2TA24)
Construct: from tissue; host or cells: bovine brain
protocol text: Inhibition of purified reconstituted V-ATPase (proton pumping)
Assay type: biochemical
pIC50: −log10 of the molar value.
measurement type: pIC50

INSERT INTO results (molecule, value_relation_sign, endpoint_result) VALUES
  ('CCCCCSC(=O)N/C=C/CC1C[C@@H](O)[C@@H](C)C/C=C/Cc2cccc(O)c2C(=O)O1 (stereo partly drawn)', '=', 8.74),
  ('CCCCCOC(=O)NCCC[C@H]1C[C@@H](O)[C@@H](C)CCCCc2cccc(O)c2C(=O)O1', '=', 7.12),
  ('CCCCCOC(=O)N/C=C/C[C@H]1C[C@@H](O)[C@@H](C)CCCCc2cccc(O)c2C(=O)O1', '=', 8.03),
  ('CC/C=C\C=C/C(=O)N(/C=C/C[C@H]1C[C@@H](O)[C@@H](C)C/C=C/Cc2cccc(O)c2C(=O)O1)C(=O)N/C=C/C[C@H]1C[C@@H](O)[C@@H](C)C/C=C/Cc2cccc(O)c2C(=O)O1', '=', 9.43),
  ('C[C@H]1C/C=C/Cc2cccc(O)c2C(=O)OC(C/C=C/NC(=O)C#Cc2ccccc2)C[C@H]1O (stereo partly drawn)', '=', 9.12),
  ('CC(C)=CCC/C(C)=C/CC/C(C)=C/COC(=O)N/C=C/CC1C[C@@H](O)[C@@H](C)C/C=C/Cc2cccc(O)c2C(=O)O1 (stereo partly drawn)', '<', 5.74);
